# Tested On: δ-opioid receptor of the mouse vas deferens (MVD) (mouse), P32300
# Sequence (P32300 whole entry, stated change not applied): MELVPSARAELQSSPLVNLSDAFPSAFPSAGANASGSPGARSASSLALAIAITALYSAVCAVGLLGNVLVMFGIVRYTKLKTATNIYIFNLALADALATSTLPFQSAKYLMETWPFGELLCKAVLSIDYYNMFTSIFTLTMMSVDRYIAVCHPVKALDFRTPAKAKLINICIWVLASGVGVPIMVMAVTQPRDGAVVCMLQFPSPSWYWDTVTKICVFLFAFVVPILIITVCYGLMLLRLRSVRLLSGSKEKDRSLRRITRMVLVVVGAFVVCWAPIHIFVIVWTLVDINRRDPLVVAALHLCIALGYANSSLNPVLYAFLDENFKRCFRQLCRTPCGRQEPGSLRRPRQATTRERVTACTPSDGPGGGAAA
# Assay Explanation: cell-based or functional assay
Non-standard residues stand in square brackets, D forms with d. *: point of attachment. NH(1-Adamantyl) = C1C2CC3CC1CC(N*)(C2)C3; Dmt = Cc1cc(O)cc(C)c1C[C@H](N)C(=O)O; Tic = O=C(O)[C@@H]1Cc2ccccc2CN1; dTic = O=C(O)[C@H]1Cc2ccccc2CN1
Readout Label: MVD Ke

Ask | Any idea what its MVD Ke is? The binder is H-[Dmt]-[dTic]-{NH(1-Adamantyl)} [H-Dmt-D-Tic-NH-1-adamantane]
Reply | > 10 µM

Ask | Which MVD Ke reading was recorded for the binder H-[Dmt]-[Tic]-NHMe [H-Dmt-Tic-NHMe] ?
Reply | > 10 µM

Ask | GET /values?readout=MVD Ke&item= H-[Dmt]-[Tic]-{NH(1-Adamantyl)} (SMILES Cc1cc(O)cc(C)c1C[C@H](N)C(=O)N1Cc2ccccc2C[C@H]1C(=O)NC12CC3CC(CC(C3)C1)C2) [H-Dmt-Tic-NH-1-adamantane]
Reply | > 10 µM
